Data provenance: patent US6667325B1

MEASURED_ATTRIBUTE: melting point

{"columns": ["COMPOUND", "melting point"],
 "data": [
  ["CCn1nc(-c2ccc(F)cc2)c(-c2ccncc2)c1C(=O)N(C)Cc1ccccc1 [Example 75]", "148 to 149.3 °C"],
  ["Cn1nc(-c2ccc(F)cc2)c(-c2ccncc2)c1C(O)CCc1ccccc1 (stereo not drawn) [Example 15]", "62 to 65 °C"],
  ["Fc1ccc(-c2n[nH]c(CCCc3ccccc3)c2-c2ccncc2)cc1 [Example 31]", "155.5 to 156.5 °C"],
  ["Cn1nc(-c2ccc(F)cc2)c(-c2ccncc2)c1C=CCc1ccccc1 [Example 29]", "136 to 137 °C"],
  ["COc1ccc(CN(C)C(=O)c2[nH]nc(-c3ccc(F)cc3)c2-c2ccncc2)cc1 [Example 73]", "225.8 to 228.4 °C"],
  ["Fc1ccc(-c2n[nH]c(CCCc3cccnc3)c2-c2ccncc2)cc1 [Example 43]", "207 to 210 °C"],
  ["O=C(Cc1ccccc1)Cc1[nH]nc(-c2ccc(F)cc2)c1-c1ccncc1 [Example 86]", "187.7 to 193.5 °C"],
  ["Cn1nc(-c2ccc(F)cc2)c(-c2ccncc2)c1CCCc1ccc(N)cc1 [Example 57]", "80.5 to 81.1 °C"]
]}

Then there is this compound:
Item COc1ccc(CN(C)C(=O)c2c(-c3ccncc3)c(-c3ccc(F)cc3)nn2C)cc1 [Example 79] has what recorded melting point?
150.1 to 152.6 °C

====

Examples of compounds with documented melting point follow.

These solved cases illustrate the format of a correct answer.
{"columns": ["COMPOUND", "melting point"],
 "data": [
  ["Fc1ccc(-c2n[nH]c(C=CCc3cccnc3)c2-c2ccncc2)cc1 [Example 26]", "187 to 188 °C"],
  ["Fc1ccc(-c2n[nH]c(COCc3ccccc3)c2-c2ccncc2)cc1 [Example 82]", "177.6 to 180.2 °C"]
]}

Item Cn1nc(-c2ccc(F)cc2)c(-c2ccncc2)c1CCCc1ccc([N+](=O)[O-])cc1 [Example 56] has what recorded melting point?
129.1 to 131.8 °C

Item CC(=Cc1[nH]nc(-c2ccc(F)cc2)c1-c1ccncc1)Cc1cccnc1 [Example 27] has what recorded melting point?
215.5 to 217.5 °C

Item Fc1ccc(-c2n[nH]c(CCCc3ccccn3)c2-c2ccncc2)cc1 [Example 40] has what recorded melting point?
143 to 144.5 °C

Item CN(Cc1ccccc1)C(=O)c1c(-c2ccncc2)c(-c2ccc(F)cc2)nn1CCO [Example 81] has what recorded melting point?
135.9 to 138.1 °C

Item CCn1nc(-c2ccc(F)cc2)c(-c2ccncc2)c1C(=O)N(C)Cc1ccccn1 [Example 80] has what recorded melting point?
144.4 to 146.8 °C

Item CCN(Cc1ccccc1)C(=O)c1c(-c2ccncc2)c(-c2ccc(F)cc2)nn1CC [Example 76] has what recorded melting point?
114.9 to 116.7 °C

Item CCN(Cc1ccccc1)C(=O)c1[nH]nc(-c2ccc(F)cc2)c1-c1ccncc1 [Example 74] has what recorded melting point?
202.9 to 204.6 °C
